Test system: Mtb MATI
Assay method text: microbe, parasite or virus in culture
Type: cell-based, Mycobacterium tuberculosis
Experimental context: Mycobacterium tuberculosis, read-out: MIC Mtb MATI
Property label: MIC

Molecule: COc1ccc(Cn2c(C)nc3cc(Cl)ccc3c2=O)cc1
MIC: 12.5 µg/mL

Molecule: Cc1nc2cc(Cl)ccc2c(=O)n1/N=C/c1ccc(O)c([N+](=O)[O-])c1
MIC: 12.5 µg/mL

Molecule: Cc1nc2cc(Cl)ccc2c(=O)n1Cc1ccc(Cl)c(Cl)c1
MIC: > 100 µg/mL

Qu. What MIC value was documented for this molecule, `Cc1nc2cc(Cl)ccc2c(=O)n1Cc1ccc(F)cc1` ?
Ans. > 50 µg/mL

Qu. Record: NNC(=O)c1ccncc1 [INH, isoniazid, reference compound]
Ans. > 100 µg/mL

Qu. Then this molecule: `Cc1nc2cc(Cl)ccc2c(=O)n1Cc1cccc(Cl)c1`
Ans. > 100 µg/mL
